System Under Test: T1, Human CXCR2 (human, UniProt P25025 1-360)
T1 sequence: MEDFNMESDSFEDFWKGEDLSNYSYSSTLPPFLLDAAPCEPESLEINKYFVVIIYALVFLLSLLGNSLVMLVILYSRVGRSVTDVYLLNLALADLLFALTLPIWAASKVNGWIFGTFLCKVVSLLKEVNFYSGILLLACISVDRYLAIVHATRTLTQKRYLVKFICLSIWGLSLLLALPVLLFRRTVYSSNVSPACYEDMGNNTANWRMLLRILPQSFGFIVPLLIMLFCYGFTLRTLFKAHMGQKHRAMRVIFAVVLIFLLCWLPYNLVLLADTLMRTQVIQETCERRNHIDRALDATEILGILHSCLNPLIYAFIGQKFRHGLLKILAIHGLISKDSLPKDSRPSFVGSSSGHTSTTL
Test Name: cell-based or functional assay
# if measured [35S]GTPγS accumulation IC50, GRO-α < 1000 pM: yes  # else: no

[ask] Answer whether the binder CXCR20023 (bispecific antibody, not shown: small tags and cut ends) EVQLVESGGGLVQAGGSLRLSCAASGRTFSDYAMGWFRQAPGKEREFVAAITWNGGRVFYTASVKGRFTISRDNAKNTMYLQMNSLKPEDTAVYYCAADKDRRTDYLGHPVAYWGQGTQVTVSSGGGGSGGGGSGGGGSGGGGSGGGGSGGGGSGGGGSEVQLVESGGGLVQPGGSLRLSCVASGRIFSSNAMGWFRQAPGKEREFVAAITWRSGGSAYYADSAKGRFTISRDNAKNTVYLQMNSLKPEDTAVYYCAAGGSSWLSFPPDYWGQGTQVTVSS has [35S]GTPγS accumulation IC50, GRO-α strictly less than 1000 pM
[reply] no

[ask] Check if [35S]GTPγS accumulation IC50, GRO-α falls below 1000 pM for CXCR20035 (other, not shown: small tags and cut ends) EVQLVESGGGLVQAGGSLTLSCAVSGSTFRINTMGWYRRAPGKQRELVAARDRGGYINYVDSVKGRFTVSRDNAKPTMYLQMNSLKPEDTAVYYCHAGTQDRTGRNFDRWGQGTQVTVSSGGGGSGGGGSGGGGSGGGGSGGGGSGGGGSGGGGSEVQLVESGGGLVQPGGSLRLSCVASGRIFSSNAMGWFRQAPGKEREFVAAITWRSGGSAYYADSAKGRFTISRDNAKNTVYLQMNSLKPEDTAVYYCAAGGSSWLSFPPDYWGQGTQVTVSS .
[reply] yes

[ask] Threshold test, [35S]GTPγS accumulation IC50, GRO-α < 1000 pM: CXCR20026 (bispecific antibody, not shown: small tags and cut ends) EVQLVESGGGLVQPGGSLRLSCVASGRIFSSNAMGWFRQAPGKEREFVAAITWRSGGSAYYADSAKGRFTISRDNAKNTVYLQMNSLKPEDTAVYYCAAGGSSWLSFPPDYWGQGTQVTVSSGGGGSGGGGSGGGGSGGGGSGGGGSGGGGSGGGGSEVQLVESGGGLVQAGESLRLSCAASGSTFDFKVMGWYRQPPGKQREGVAAIRLSGNMHYAESVKGRFTISKANAKNTVYLQMNSLRPEDTAVYYCKVNIRGQDYWGQGTQVTVSS
[reply] yes
